Molecular target: Kras and SOS1 (biotin-tagged human Kras loaded with GDP, His-tagged human SOS1) (Homo sapiens, UniProt P01116, G12D)
Construct: made in house; host or cells: E. coli (stated for Kras only)
Sequence (P01116 1-188 isoform P01116-2 G12D): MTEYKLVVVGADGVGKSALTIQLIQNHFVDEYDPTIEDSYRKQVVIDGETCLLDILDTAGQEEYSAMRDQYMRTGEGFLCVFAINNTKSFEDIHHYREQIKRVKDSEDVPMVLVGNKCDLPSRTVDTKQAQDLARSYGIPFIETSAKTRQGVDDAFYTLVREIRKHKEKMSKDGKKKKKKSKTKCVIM
Test: Protein-protein interaction inhibition between Kras and SOS1 (KrasGl2D-SOS PPI) using AlphaScreen
Assay type: binding
Settings: AlphaScreen; biotin-tagged human Kras loaded with GDP, His-tagged human SOS1; read-out: KRAS G12D-SOS PPI IC50
Protocol: Protein-Protein Interaction Inhibition Between Kras and SOS1 (KrasGl2D-SOS PPI) Using AlphaScreen Protein-protein interaction inhibition (PPI) between Kras and SOS1 was measured by energy transfer from nickel-conjugated donor beads to streptavidin-conjugated acceptor beads using biotin-tagged human Kras expressed in E. coli and loaded with GDP after purification and His-tagged human SOS1 enzyme. […]
Positions of bridges follow the written chain, without caps; N, C: chain ends. Non-standard residues stand in square brackets, D forms with d. Residues, ends and D or L forms follow the SMILES beside them. *: point of attachment. hPhe(3-Cl-4-CF3) = N[C@@H](CCc1ccc(C(F)(F)F)c(Cl)c1)C(=O)O; hPhe(4-CF3) = N[C@@H](CCc1ccc(C(F)(F)F)cc1)C(=O)O; NMePhe(4-Cl) = CN[C@@H](Cc1ccc(Cl)cc1)C(=O)O; NMePhe(4-Me) = CN[C@@H](Cc1ccc(C)cc1)C(=O)O; Phe(3-I) = N[C@@H](Cc1cccc(I)c1)C(=O)O; NMeCha = CN[C@@H](CC1CCCCC1)C(=O)O; NMeF = CN[C@@H](Cc1ccccc1)C(=O)O; NMeI = CC[C@H](C)[C@H](NC)C(=O)O; NMeD = CN[C@@H](CC(=O)O)C(=O)O; NMeL = CN[C@@H](CC(C)C)C(=O)O; Oxazolidin(3-yl) = C1CN(*)CO1; NMeV = CN[C@H](C(=O)O)C(C)C; d(β3hA) = C[C@@H](N)CC(=O)O; NMeA = CN[C@@H](C)C(=O)O; Piperidide = C1CCN(*)CC1; Pyrrolidide = C1CCN(*)C1; Ac5c = NC1(C(=O)O)CCCC1; Isopentyl = CC(C)CC*; Sar = CNCC(=O)O
Outcome Measure: IC50 (nM)
Just the number please, in nM, no unit attached.

[[record]]
compound = "CC[C@H](C)[C@@H]1NC(=O)[C@H](C)N(C)C(=O)C[C@@H](C)NC(=O)[C@H](C(C)C)N(C)C(=O)[C@H](Cc2ccccc2)N(C)C(=O)[C@@H]2CCCN2C(=O)[C@H](CCc2ccc(C(F)(F)F)cc2)NC(=O)CN(C)C(=O)[C@H](Cc2ccc(Cl)cc2)N(C)C(=O)CN(C)C(=O)CN(C)C1=O [Compound 865] (cyclo(I[Sar][Sar][NMePhe(4-Cl)][Sar][hPhe(4-CF3)]P[NMeF][NMeV][d(β3hA)][NMeA]))"
outcome_measure = "IC50"
unit_info = "nM"
reported_result = 55


Quick note, IC50 for CC[C@H](C)[C@@H]1NC(=O)[C@H](CC(C)C)N(C)C(=O)C[C@@H](C)NC(=O)[C@H](C(C)C)N(C)C(=O)C2(CCCC2)NC(=O)[C@@H]2CCCN2C(=O)[C@H](CCc2ccc(C(F)(F)F)c(Cl)c2)NC(=O)CN(C)C(=O)[C@H](CC2CCCCC2)N(C)C(=O)CN(C)C(=O)CN(C)C1=O [Compound 1457] (cyclo([Ac5c][NMeV][d(β3hA)][NMeL]I[Sar][Sar][NMeCha][Sar][hPhe(3-Cl-4-CF3)]P)) landed at 11

Quick note, IC50 for CC[C@H](C)[C@@H]1NC(=O)[C@H](C)N(C)C(=O)C[C@@H](C(=O)N2CCCC2)NC(=O)[C@H](CC(C)C)N(C)C(=O)[C@H](Cc2ccccc2)N(C)C(=O)[C@H](COCCC(C)C)NC(=O)[C@H](CCc2ccc(C(F)(F)F)cc2)NC(=O)CN(C)C(=O)[C@H](Cc2ccc(Cl)cc2)N(C)C(=O)CN(C)C(=O)CN(C)C1=O [Compound 1119] ([NMeA]I[Sar][Sar][NMePhe(4-Cl)][Sar][hPhe(4-CF3)]S(Isopentyl)[NMeF][NMeL]D-Pyrrolidide; lactam N-11) landed at 180

Quick note, IC50 for CC[C@H](C)[C@@H]1NC(=O)[C@H](CC(C)C)N(C)C(=O)C[C@@H](C(=O)N2CCCCC2)N(C)C(=O)[C@H](CC(C)C)NC(=O)[C@H](Cc2ccccc2)N(C)C(=O)[C@H](C)NC(=O)[C@H](Cc2cccc(I)c2)NC(=O)CN(C)C(=O)[C@H](Cc2ccc(C)cc2)N(C)C(=O)CN(C)C(=O)CN(C)C1=O [Compound 619] ([NMeL]I[Sar][Sar][NMePhe(4-Me)][Sar][Phe(3-I)]A[NMeF]L[NMeD]-Piperidide; lactam N-11) landed at 19

Quick note, IC50 for CC[C@H](C)[C@@H]1NC(=O)[C@H](CC(C)C)N(C)C(=O)C[C@@H](C(=O)N2CCOC2)NC(=O)[C@H]([C@@H](C)CC)N(C)C(=O)C2(CCCC2)NC(=O)[C@@H]2CCCN2C(=O)[C@H](CCc2ccc(C(F)(F)F)c(Cl)c2)NC(=O)CN(C)C(=O)[C@H](CC2CCCCC2)N(C)C(=O)CN(C)C(=O)CN(C)C1=O [Compound 1247] ([NMeL]I[Sar][Sar][NMeCha][Sar][hPhe(3-Cl-4-CF3)]P[Ac5c][NMeI]D-{Oxazolidin(3-yl)}; lactam N-11) landed at 4.8
